B1: Chromodomain-helicase-DNA-binding protein 3, residues 374 to 426; numbered along this chain, Q12873 (parent)
chain: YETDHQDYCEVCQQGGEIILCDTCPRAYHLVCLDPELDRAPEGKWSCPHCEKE

- Variants of: B1
- testName: abundance fitness (aPCA) (normalised: wild type 0, dead -1); higher = more abundant; growth selection in yeast, the domain comes from the species named
- studyConditions: Homo sapiens
Hi, to clarify the labels: Condition met covers abundance fitness from -0.03 upward, Condition not met covers anything below -0.03.

For orientation, consider the following solved cases.
mutations	labelValue
C9P	Condition not met
Q14A	Condition not met
Y28C	Condition not met

Task item: Hello, I need to know if E36C has measured abundance fitness not below -0.03. Thanks!
Reply: Condition met

Task item: Here is the next variant: P25A
Reply: Condition met
